Source: paper PMC6774960

IC50 reference
Test system: HepG2 cells
method-notes: MTT anti-proliferation assay, HepG2
Type: cell-based, human
assay-context: Homo sapiens, HepG2, 24 h, average of three determinations
# number only, unit µM dropped from output

Here's what some known entries look like.
COc1cc(C(=Cc2ccc(OC(F)(F)F)cc2)C(=O)O)cc(OC)c1OC :: 18.7
COc1cc(C(=Cc2ccccc2C(F)(F)F)C(=O)O)cc(OC)c1OC :: 42
COc1cc(C(=Cc2cc(C(F)(F)F)ccc2Cl)C(=O)O)cc(OC)c1OC :: 100
COc1cc(C(=Cc2cccc(OC(F)(F)F)c2)C(=O)O)cc(OC)c1OC :: 24
COc1ccc(C(=Cc2cc(C(F)(F)F)ccc2Cl)C(=O)O)cc1 :: 7.49

Query: Query (compound): COc1cc(C(=Cc2ccc(Cl)cc2Cl)C(=O)O)cc(OC)c1OC ; field requested: IC50
Reply: 30

Query: I'd like to know its IC50. The compound in question is COc1ccc(C(=Cc2cccc(C(F)(F)F)c2)C(=O)O)cc1
Reply: 19

Query: What measured IC50 goes with COc1ccc(C(=Cc2c(Cl)cccc2Cl)C(=O)O)cc1 ?
Reply: 48

###

Here, each record is paired with measured CC50 at 24 h data.
method-notes: MTT cytotoxicity test, LO2
Type: cell-based, human
assay-context: human, LO2 cells (normal human hepatocytes), average of three determinations
Report only the number, with the unit µM understood.

Please review the entries below; each comes with its answer.
COc1cc(C(=Cc2ccc(OC)c(OC)c2Cl)C(=O)O)cc(OC)c1OC [compound l] :: 64
COc1ccc(C=C(C(=O)O)c2cc(C)cc(C)c2)cc1 [compound v] :: 96
COc1cc(C(=Cc2c(Cl)cccc2Cl)C(=O)O)cc(OC)c1OC [compound b] :: 92

Query: Requested field: CC50 at 24 h. Item: COc1ccc(C(=Cc2c(Cl)ccc(Cl)c2Cl)C(=O)O)cc1 [compound u]
Reply: 35

Query: // returns reported CC50 at 24 h for input COc1ccc(C(=Cc2ccc(OC(F)(F)F)cc2)C(=O)O)cc1 [compound p]
Reply: 84

Query: Endpoint output: CC50 at 24 h of COc1cc(C(=Cc2cccc(C(F)(F)F)c2)C(=O)O)cc(OC)c1OC [compound h] . Value?
Reply: 75

Query: What value of CC50 at 24 h has been reported for the following compound? COc1ccc(C(=Cc2cccc(C(F)(F)F)c2)C(=O)O)cc1 [compound q]
Reply: 98

Query: I'd like to know its CC50 at 24 h. The compound in question is COc1cc(C(=Cc2ccc(Cl)c(Cl)c2)C(=O)O)cc(OC)c1OC [compound a]
Reply: 27

Query: // CC50 at 24 h lookup, key: COc1cc(C(=Cc2c(Cl)ccc(Cl)c2Cl)C(=O)O)cc(OC)c1OC [compound n]
Reply: 77

Query: // CC50 at 24 h lookup, key: COc1cc(C(=Cc2cc([N+](=O)[O-])ccc2Cl)C(=O)O)cc(OC)c1OC [compound d]
Reply: 93

###

Tested on: HepG2 cells
method-notes: MTT anti-proliferation assay, HepG2
Format: cell-based, human
assay-context: Homo sapiens, HepG2, 24 h, average of three determinations
Experimental: The 22 synthesized resveratrol compounds were evaluated for anti-proliferative activities against three human cancer cell lines, including HepG2, A549 and HeLa cells, using 3-[4,5-dimethylthiazol-2-yl]-2,5 diphenyl tetrazolium bromide (MTT) assays. Paclitaxel, a well-known tubulin inhibitor, was used as a positive control. […] The anti-proliferative and cytotoxicity activity was determined using MTT assay. […]
pIC50 values for the compounds below.
# reply with the number alone; pIC50 is -log10 of concentration in mol/L

COc1cc(C(=Cc2ccc(C(F)(F)F)cc2)C(=O)O)cc(OC)c1OC :: 4.25
COc1ccc(C(=Cc2ccc(OC)c(OC)c2Cl)C(=O)O)cc1 :: 4.03

Query: Provide value of pIC50 for this record tested with HepG2 cells: COc1cc(C(=Cc2c(Cl)ccc(Cl)c2Cl)C(=O)O)cc(OC)c1OC
Reply: 4.10

###

Tested on: HepG2 cells
method-notes: MTT anti-proliferation assay, HepG2
Format: cell-based, human
assay-context: Homo sapiens, HepG2, 24 h, average of three determinations
Listed here: items and their measured pIC50.
// pIC50: -log10(molar conc.)

Worked set:
COc1cc(C(=Cc2c(Cl)cccc2Cl)C(=O)O)cc(OC)c1OC [compound b] :: 4.13
CC(=O)O[C@H]1C(=O)[C@@]2(C)[C@H]([C@H](OC(=O)c3ccccc3)[C@]3(O)C[C@H](OC(=O)[C@H](O)[C@@H](NC(=O)c4ccccc4)c4ccccc4)C(C)=C1C3(C)C)[C@]1(OC(C)=O)CO[C@@H]1C[C@@H]2O [paclitaxel, reference compound] :: 6.41
COc1cc(C(=Cc2ccc(Cl)c(Cl)c2)C(=O)O)cc(OC)c1OC [compound a] :: 4.30
COc1ccc(C=C(C(=O)O)c2cc(C)cc(C)c2)cc1 [compound v] :: 4.00
COc1cc(C(=Cc2cccc(C(F)(F)F)c2)C(=O)O)cc(OC)c1OC [compound h] :: 4.33

Now for the compound whose pIC50 we want.
Query: Could you share which pIC50 value was measured for COc1ccc(C(=Cc2ccc(OC(F)(F)F)cc2)C(=O)O)cc1 [compound p] ?
Reply: 5.11

###

System: A549 cells
method-notes: MTT anti-proliferation assay, A549
Type: cell-based, human
assay-context: Homo sapiens, A549, 24 h, average of three determinations
The entries below are paired with their reported pIC50.
pIC50 is a log-scale quantity: -log10 of the concentration expressed in molar.

COc1cc(C(=Cc2cc(Cl)ccc2[N+](=O)[O-])C(=O)O)cc(OC)c1OC [compound m] :: 4.47
COc1cc(C(=Cc2ccc(Cl)cc2Cl)C(=O)O)cc(OC)c1OC [compound c] :: 4.52
COc1cc(C(=Cc2c(Cl)ccc(Cl)c2Cl)C(=O)O)cc(OC)c1OC [compound n] :: 4.57
COc1cc(C(=Cc2c(Cl)cccc2Cl)C(=O)O)cc(OC)c1OC [compound b] :: 4.34
COc1ccc(C(=Cc2c(Cl)cccc2Cl)C(=O)O)cc1 [compound o] :: 4.67
CC(=O)O[C@H]1C(=O)[C@@]2(C)[C@H]([C@H](OC(=O)c3ccccc3)[C@]3(O)C[C@H](OC(=O)[C@H](O)[C@@H](NC(=O)c4ccccc4)c4ccccc4)C(C)=C1C3(C)C)[C@]1(OC(C)=O)CO[C@@H]1C[C@@H]2O [paclitaxel, reference compound] :: 6.77
COc1ccc(C(=Cc2cccc(C(F)(F)F)c2)C(=O)O)cc1 [compound q] :: 4.80
COc1cc(C(=Cc2ccc(Cl)c(Cl)c2)C(=O)O)cc(OC)c1OC [compound a] :: 4.47
COc1cc(C(=Cc2cccc(OC(F)(F)F)c2)C(=O)O)cc(OC)c1OC [compound g] :: 4.85

Please look at the following compound next.
Query: pIC50 lookup needed for COc1ccc(C=C(C(=O)O)c2cc(C)cc(C)c2)cc1 [compound v] , thanks.
Reply: 4.21

###

method-notes: MTT cytotoxicity test, Vero
Assay type: cell-based, African green monkey
assay-context: African green monkey, Vero cells (normal African green monkey kidney), average of three determinations
Parameter: CC50 at 24 h. Scope: all listed entries.

Please review the entries below; each comes with its answer.
COc1cc(C(=Cc2cccc(C(F)(F)F)c2)C(=O)O)cc(OC)c1OC [compound h] :: > 100 µM
COc1ccc(C(=Cc2cccc(C(F)(F)F)c2)C(=O)O)cc1 [compound q] :: > 100 µM
COc1cc(C(=Cc2ccc(Cl)cc2Cl)C(=O)O)cc(OC)c1OC [compound c] :: 71 µM
COc1cc(C(=Cc2ccccc2OC(F)(F)F)C(=O)O)cc(OC)c1OC [compound e] :: 82 µM

Query: Item under review: COc1cc(C(=Cc2c(Cl)ccc(Cl)c2Cl)C(=O)O)cc(OC)c1OC [compound n] . Reported CC50 at 24 h?
Reply: 63 µM

###

quantity-kind: melting point

Query: Returns the measured melting point for the input compound. Input: COc1cc(C(=Cc2cc(Cl)ccc2[N+](=O)[O-])C(=O)O)cc(OC)c1OC
Reply: 167 to 169 °C

Query: Entry COc1cc(C(=Cc2ccccc2C(F)(F)F)C(=O)O)cc(OC)c1OC has what melting point?
Reply: 160 to 162 °C

Query: Any idea what melting point was measured for COc1ccc(C(=Cc2cccc(C(F)(F)F)c2)C(=O)O)cc1 ?
Reply: 192 to 194 °C

Query: Need melting point of COc1cc(C(=Cc2cccc(OC(F)(F)F)c2)C(=O)O)cc(OC)c1OC , thanks.
Reply: 156 to 157 °C

Query: For COc1cc(C(=Cc2ccc(Cl)c(Cl)c2)C(=O)O)cc(OC)c1OC , what is its reported melting point?
Reply: 233 to 235 °C

Query: I would be grateful if you could share the reported melting point for COc1cc(C(=Cc2c(Cl)cccc2Cl)C(=O)O)cc(OC)c1OC .
Reply: 217 to 218 °C
